# System: cysteine peptide Ac-RFAACAA-COOH
# experiment_notes: efficacy of cysteine peptide change (negative = depletion) (% activity); higher = less depletion
# condition_details: incubation time: 24 h
Where a name gives a salt, the structure may show the parent alone.
The entries below are paired with their reported efficacy of cysteine peptide change.
reported_endpoint: efficacy of cysteine peptide change

>>> test_value("COc1ccc(O)c(C(C)(C)C)c1")
-37.3
>>> test_value("Cc1ccc2c(c1[N+](=O)[O-])C(=O)c1ccccc1C2=O")
-26
>>> test_value("COc1ccc2cc(CCC(C)=O)ccc2c1")
-3.44
>>> test_value("CN(C)c1ccc(N(C)C)cc1")
-93.1
>>> test_value("Nc1ccc(-c2ccccc2)cc1 [4-Biphenylamine hydrochloride]")
-6.9
>>> test_value("N=C1C=CC(=C(c2ccc(N)cc2)c2ccc(N)cc2)C=C1 [C.I. Basic Red 9 monohydrochloride]")
-58.7
>>> test_value("O=C(O)c1ccccc1C(=O)Nc1cccc2ccccc12")
-104
>>> test_value("Nc1ccc2ccccc2c1")
-65.5
>>> test_value("CNc1ccc(O)cc1 [4-(Methylamino)phenol Sulfate]")
-82.7

* * *

# System: cysteine peptide Ac-RFAACAA-COOH
# experiment_notes: efficacy of cysteine peptide change (negative = depletion) (% activity); higher = less depletion
# condition_details: incubation time: 24 h
Outcome label depends on efficacy of cysteine peptide change relative to -40: at/above gives 1, below gives 0.

>>> category_label("Fc1ccc(Oc2ccnc3cc(Cl)cc(Cl)c23)cc1")
1
>>> category_label("CC(C)c1ccc2cc(C(C)C)ccc2c1")
1
>>> category_label("Cc1c(C)n(CCN(C)C)c2ccc(C(=O)OCCN(C)C)cc12 [Amindocate]")
1
>>> category_label("NC(=S)NC(N)=S")
0
>>> category_label("CC1=C(/C=C/C(C)=C\\C=C\\C(C)=C\\C(=O)O)C(C)(C)CCC1 [9-cis Retinoic acid]")
0
>>> category_label("CCCCCCCCCCCCCCCC[N+](C)(C)Cc1ccccc1 [Benzylhexadecyldimethylammonium chloride]")
1
>>> category_label("C=C1C[C@@H]2[C@H](CC[C@]3(C)C(=O)CC[C@@H]23)[C@@]2(C)C=CC(=O)C=C12")
1
>>> category_label("OC[P+](CO)(CO)CO [Tetrakis(hydroxymethyl)phosphonium SO4]")
1
>>> category_label("Nc1cc(-c2ccncc2)c[nH]c1=O")
0
>>> category_label("C=CCOC(=O)/C=C\\C(=O)OCC=C [Diprop-2-en-1-yl (2Z)-but-2-enedioate]")
0
>>> category_label("CCCCCOc1ccccc1/C(=C\\SC)n1ccnc1")
1
>>> category_label("CC1COc2ccccc2N1C(=O)C(Cl)Cl (centres undefined)")
1
>>> category_label("CC(=O)Oc1ccc(C(c2ccc(OC(C)=O)cc2)c2ccccn2)cc1")
1
>>> category_label("CCCCCCCCCCC=CC1CC(=O)OC1=O (centres undefined) [3-(Dodecenyl)dihydro-2,5-furandione]")
1
>>> category_label("COc1cccc2c1C(=O)c1c(O)c3c(c(O)c1C2=O)C[C@@](O)(C(=O)CO)C[C@@H]3O[C@H]1C[C@H](N)[C@H](O)[C@H](C)O1")
0
>>> category_label("COP(=S)(OC)Oc1nc(Cl)c(Cl)cc1Cl")
0
>>> category_label("Oc1ccc2ccccc2c1N=Nc1ccccc1")
0
>>> category_label("O=c1cc(-c2ccccc2)oc2ccccc12")
1
>>> category_label("c1ccc(-c2cccc(-c3ccccc3)c2)cc1")
1

Where these numbers come from: the supplement of paper PMC10933113
